molecular target: human IL-6 (human, UniProt P05231 30-212); assay: SPR Biacore, supernatant, Protein A capture, 37 C
Sequence (P05231 30-212 limits assumed): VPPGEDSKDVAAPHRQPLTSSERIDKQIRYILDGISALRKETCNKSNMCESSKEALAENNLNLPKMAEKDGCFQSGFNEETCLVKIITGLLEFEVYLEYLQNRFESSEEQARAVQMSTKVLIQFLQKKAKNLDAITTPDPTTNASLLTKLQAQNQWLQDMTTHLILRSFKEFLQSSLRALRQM
measuredEndpoint: kon

INSERT INTO results (binder, measuredendpoint, result) VALUES
  ('Anti-IL-6 antibody, heavy chain S35H, G66D, Q99A / light chain WT (antibody, IgG1, V domains shown, IgG1; variable domains only) VH: EVQLVESGGGLVQPGGSLRLSCAASGFTFSPFAMHWVRQAPGKGLEWVAKISPGGSWTYYSDTVTDRFTFSLDTSKSTAYLQMNSLRAEDTAVYYCARALWGYYALDIWGQGTLVTVSS VL: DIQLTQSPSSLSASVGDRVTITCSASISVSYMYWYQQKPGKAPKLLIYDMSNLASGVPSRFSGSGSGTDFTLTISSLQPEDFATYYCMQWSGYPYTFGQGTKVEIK', 'kon', '1.85e+06 M⁻¹ s⁻¹'),
  ('Anti-IL-6 antibody, heavy chain S35H, G66D, L100E / light chain WT (antibody, IgG1, V domains shown, IgG1; variable domains only) VH: EVQLVESGGGLVQPGGSLRLSCAASGFTFSPFAMHWVRQAPGKGLEWVAKISPGGSWTYYSDTVTDRFTFSLDTSKSTAYLQMNSLRAEDTAVYYCARQEWGYYALDIWGQGTLVTVSS VL: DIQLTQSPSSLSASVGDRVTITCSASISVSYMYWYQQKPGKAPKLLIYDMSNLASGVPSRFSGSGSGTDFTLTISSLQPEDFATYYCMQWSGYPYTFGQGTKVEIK', 'kon', '1.13e+06 M⁻¹ s⁻¹'),
  ('Anti-IL-6 antibody, heavy chain WT / light chain M32L, M50D, N52S, M88Q (antibody, IgG1, V domains shown, IgG1; variable domains only; VL is variant III) VH: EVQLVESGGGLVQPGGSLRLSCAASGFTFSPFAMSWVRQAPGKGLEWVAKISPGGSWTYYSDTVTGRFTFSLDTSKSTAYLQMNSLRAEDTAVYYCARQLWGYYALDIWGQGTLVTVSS VL: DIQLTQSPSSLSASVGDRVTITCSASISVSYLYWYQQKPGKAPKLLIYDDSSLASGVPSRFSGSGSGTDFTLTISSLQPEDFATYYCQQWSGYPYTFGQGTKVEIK', 'kon', '920000 M⁻¹ s⁻¹');
